src = ChEMBL document CHEMBL1201862

Field: GI50. Provide a value for each of the molecules that follow.
System: KM12
Test: NCI tumour cell line growth inhibition, 48 h
Calls of active or inactive are those of the source. No stated cut-off is given here; in the data, active = GI50 up to about 1.1 µM and inactive = higher.

Please review the entries below; each comes with its answer.
- Molecule: "NC1N=Nc2ccccc21 (configuration not stated)"
  Value reported: "> 100 µM (inactive)"
- Molecule: "COC(=O)C(Cc1ccc(OC)cc1O)NC(=O)OC(C)(C)C (configuration not stated)"
  Value reported: "> 100 µM (inactive)"
- Molecule: "O=C(Cc1ccccc1)c1ccc2[nH]c(=O)oc2c1"
  Value reported: "19 µM (inactive)"
- Molecule: "O=C1c2ccccc2C(=O)c2c1oc1cc(O)c(Cl)cc21"
  Value reported: "6.35 µM (inactive)"
- Molecule: "S=C1SSC2N=CC=CC12 (configuration not stated)"
  Value reported: "17.3 µM (inactive)"

Provide the reported GI50 of each entry below, same order.
1. CN1CCOC(c2ccccc2)O1 (configuration not stated)
2. CCCC1(CC(=O)O)OCCc2c1[nH]c1ccccc21 (configuration not stated)

Result:
["> 100 µM (inactive)", "> 100 µM (inactive)"]

// for each molecule below, give its GI50
1. Cn1c(SCc2c[nH]c3ccccc23)nnc1-c1ccc(Cl)cc1Cl
2. CCC1CN(C(=O)c2ccccc2)C(Cc2c[nH]c3ccccc23)C(=O)C1CC(=O)OC (configuration not stated)

Result:
1: 9.82 µM (inactive); 2: 59.2 µM (inactive)

Provide each entry's GI50 from the list below.
1. CCOC(=O)c1nc2ccc(C(F)(F)F)cc2nc1Oc1ccc(F)cc1
2. COC(=O)C1=NN2c3ccccc3CN([C@@H](C)c3ccccc3)C(=O)[C@H]2[C@@H]1C
3. O=[N+]([O-])c1ccc(-c2ccc(-c3csc(Nc4ccccn4)n3)o2)cc1

Result:
1. > 100 µM (inactive)
2. 31 µM (inactive)
3. 49.5 µM (inactive)

----------
System: IGROV-1
Experiment: NCI tumour cell line growth inhibition, 48 h
Activity calls are given as the source filed them. No stated cut-off is given here; in the data, active = GI50 up to about 1.1 µM and inactive = higher.
Assay metric: GI50

Provide GI50 for all items below, preserving their order.
1. O=C(Cc1ccccc1)c1ccc2[nH]c(=O)oc2c1
2. COc1ccc(C2C(C=O)C(N3CCN(C)CC3)=Nc3nc4ccccc4n32)cc1 (stereo not given)
3. OCC1OC(NCCNCCNC2OC(CO)C(O)C(O)C2O)C(O)C(O)C1O (stereo not given)
4. COc1ccccc1CNCc1nc2ccccc2[nH]1
5. Cc1cccc(/C=N/C23CC4CC(CC(C4)C2)C3)c1

Result:
9.53 µM (inactive)
16.3 µM (inactive)
> 100 µM (inactive)
> 100 µM (inactive)
> 100 µM (inactive)

----------
Test system: SN12C
Assay: NCI tumour cell line growth inhibition, 48 h
Calls of active or inactive are those of the source. Cut-off read from the data, not from the text of the source: active = GI50 up to about 1.1 µM and inactive = higher.
Consider the following compounds; for each one, report its GI50.

Examples with their reported GI50 follow.
- Compound: "CC(C)C1OC(=O)C=C1Sc1ccccc1 (centres undefined)"
  GI50: "> 100 µM (inactive)"
- Compound: "O=c1nc2n(c3nsnc13)CCO2"
  GI50: "> 100 µM (inactive)"
- Compound: "CCOC(=O)/C=C(\\C)Sc1cc(O)c2ccccc2c1O"
  GI50: "29.2 µM (inactive)"

# evaluate next
Ask: What measured GI50 goes with Cn1/c(=N\N=C2\C=C3CCCCC3(C)CC2)sc2ccccc21 (centres undefined) ?
Result: > 100 µM (inactive)
